Recorded Fibrin % cell toxicity for the following compounds
Tested on: primary rat microglia
Assay notes: Cell toxicity (dead cells, size <150 μm2) in coated fibrin (cFib) assay;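 note: share of dead cells sized under 150 µm2 at 10 µM in fibrin-stimulated microglia HTS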
Measurement setup: primary microglia HTS, fibrin stimulation; decreased size (<150 μm^2) as marker of toxicity
Where a name gives a salt, the structure may show the parent alone.
Give the number; % is assumed, so skip it.

Below, 4 compounds whose answers are already recorded.
- Compound: "CCCCC[C@H](O)/C=C/[C@H]1[C@H](O)CC(=O)[C@@H]1CCCCCCC(=O)O"
  Unit abbreviation: "%"
  Observed result: 9
- Compound: "OCCN1C[C@H](O)[C@@H](O)[C@H](O)[C@H]1CO"
  Unit abbreviation: "%"
  Observed result: 0
- Compound: "CCOC(=O)C1=C(C)NC(C)=C(C(=O)OC)C1c1cccc([N+](=O)[O-])c1 (centres unmarked)"
  Unit abbreviation: "%"
  Observed result: 1
- Compound: "Oc1ccc(OCc2ccccc2)cc1"
  Unit abbreviation: "%"
  Observed result: 1

Request: Need Fibrin % cell toxicity of C[C@H]1O[C@@H](O[C@H]2CC[C@@]3(C)[C@H](CC[C@@H]4[C@@H]3C[C@@H](O)[C@]3(C)[C@@H](C5=CC(=O)OC5)CC[C@]43O)C2)C[C@H](O)[C@@H]1O[C@H]1C[C@H](O)[C@H](O[C@H]2C[C@H](O)[C@H](O[C@@H]3O[C@H](CO)[C@@H](O)[C@H](O)[C@H]3O)[C@@H](C)O2)[C@@H](C)O1 [Deslanoside] , thanks.
Response: 1

Request: How about this compound: CCOC(=O)[N-]c1cn(N2CCOCC2)n[o+]1 [Molsidomine, reference compound]
Response: 2

Request: How about this compound: CCN(CC)CCOCCOC(=O)C(CC)(CC)c1ccccc1
Response: 1

Request: How about this compound: CC(CCc1ccc(O)cc1)NCC(O)c1ccc(O)cc1 (centres unmarked) [Ractopamine hydrochloride, reference compound]
Response: 1

====

Tested on: primary rat microglia
Assay notes: Cell toxicity (dead cells, size <150 μm2) in LPS assay
Measurement setup: primary microglia HTS, LPS stimulation; decreased size (<150 μm^2) as marker of toxicity
Structures can show the parent of a compound that is named as a salt.
Recorded LPS % cell toxicity for the following compounds
Give the number; % is assumed, so skip it.

Below, 5 compounds whose answers are already recorded.
- Compound: "Cc1ccc(S(=O)(=O)NC(=O)NN2CCCCCC2)cc1 [Tolazamide, reference compound]"
  LPS % cell toxicity / %: 0
- Compound: "NCc1ccc(S(N)(=O)=O)cc1 [Mafenide]"
  LPS % cell toxicity / %: 0
- Compound: "Cc1ncc(CNC(=O)N(CCCl)N=O)c(N)n1 [Nimustine]"
  LPS % cell toxicity / %: 0
- Compound: "C[C@@H]1CN(c2c(F)c(F)c3c(=O)c(C(=O)O)cn(C4CC4)c3c2F)C[C@H](C)N1 [Orbifloxacin]"
  LPS % cell toxicity / %: 0
- Compound: "S=C=NCc1ccccc1 [Benzyl isothiocyanate, reference compound]"
  LPS % cell toxicity / %: 2

Request: Need LPS % cell toxicity of CCCCC(CC)CNC(=N)NC(=N)NCCCCCCNC(=N)NC(=N)NCC(CC)CCCC (centres unmarked) [Alexidine Hydrochloride] , thanks.
Response: 9

Request: How about this compound: Nc1ccc(S(=O)(=O)Nc2cnc3ccccc3n2)cc1 [Sulfaquinoxaline sodium, reference compound]
Response: 3
